- SETTINGS: human gut metagenome, 24 h, 2 µM; note: call rule not given here
READOUT LABEL: Bacterial Biotransformation

* CN1CCN(C2=Nc3ccccc3Oc3ccc(Cl)cc32)CC1.O=C(O)CCC(=O)O [LOXAPINE SUCCINATE] | Compound NOT metabolized
* CCOc1ccccc1OCCN[C@H](C)Cc1ccc(OC)c(S(N)(=O)=O)c1.Cl [TAMSULOSIN HYDROCHLORIDE] | Compound NOT metabolized

---

- ASSAY METHOD TEXT: The drug is tested on WLS-010 corresponding to human gut metagenome with ENA study accession number: PRJEB37062 and ENA sample accession number: ERS12561743 for biotransformation under anaerobic condition. The drug concentrations were measured over 9 timepoints collected between 0 and 24 hours of incubation by liquid-chromatography-coupled mass spectrometry (LC–MS)
- SETTINGS: 2 µM
READOUT LABEL: Bacterial Biotransformation

* COc1cc(C(=O)NCc2ccc(OCCN(C)C)cc2)cc(OC)c1OC [TRIMETHOBENZAMIDE] | Compound NOT metabolized
* CCN(C(C)=O)c1cccc(-c2ccnc3c(C#N)cnn23)c1 | Compound metabolized
* O=C1C(CC[S+]([O-])c2ccccc2)C(=O)N(c2ccccc2)N1c1ccccc1 (centres undefined) | Compound metabolized
* CCc1cccc2c3c([nH]c12)C(CC)(CC(=O)O)OCC3 (centres undefined) | Compound metabolized
* CC1=C(CC(=O)O)c2cc(F)ccc2/C1=C\c1ccc([S+](C)[O-])cc1 (centres undefined) | Compound metabolized
* CCOC(=O)C1=C[C@]2(CC)CCCN3CCc4c(n1c1ccccc41)[C@@H]32 | Compound NOT metabolized
* CN1CCC[C@@H]1CCO[C@](C)(c1ccccc1)c1ccc(Cl)cc1.O=C(O)/C=C/C(=O)O [CLEMASTINE FUMARATE] | Compound NOT metabolized
* CC#C[C@]1(O)CC[C@H]2[C@@H]3CCC4=CC(=O)CCC4=C3[C@@H](c3ccc(N(C)C)cc3)C[C@@]21C | Compound metabolized
* CC(=O)OCC(CCn1cnc2cnc(N)nc21)COC(C)=O | Compound metabolized

---

- ASSAY METHOD TEXT: The drug is tested on WLS-007 corresponding to human gut metagenome with ENA study accession number: PRJEB37062 and ENA sample accession number: ERS12561742 for biotransformation under anaerobic condition. The drug concentrations were measured over 9 timepoints collected between 0 and 24 hours of incubation by liquid-chromatography-coupled mass spectrometry (LC–MS)
- SETTINGS: 2 µM
READOUT LABEL: Bacterial Biotransformation

* O=C1C(CC[S+]([O-])c2ccccc2)C(=O)N(c2ccccc2)N1c1ccccc1 (configuration not stated) | Compound metabolized
* COc1cc(C(=O)NCc2ccc(OCCN(C)C)cc2)cc(OC)c1OC [TRIMETHOBENZAMIDE] | Compound NOT metabolized
* CC(=O)OCC(=O)[C@@]1(OC(C)=O)[C@@H](C)C[C@H]2[C@@H]3C[C@H](F)C4=CC(=O)C=C[C@]4(C)[C@@]3(F)[C@@H](O)C[C@@]21C [DIFLORASONE DIACETATE] | Compound metabolized
* CN[C@H]1CC[C@@H](c2ccc(Cl)c(Cl)c2)c2ccccc21 | Compound metabolized
* CC(C)c1c(CN(C)C(C)Cc2ccccc2)n(C)n(-c2ccccc2)c1=O (configuration not stated) | Compound metabolized
* COc1ccc([C@@H]2Sc3ccccc3N(CCN(C)C)C(=O)[C@@H]2OC(C)=O)cc1 | Compound NOT metabolized
* CCOC(=O)C1=C(C)NC(C)=C(C(=O)OC)C1c1cccc([N+](=O)[O-])c1 (configuration not stated) | Compound NOT metabolized
* COc1ccc(C(CN(C)C)C2(O)CCCCC2)cc1 (configuration not stated) | Compound NOT metabolized
* CCOc1cc(CC(=O)N[C@@H](CC(C)C)c2ccccc2N2CCCCC2)ccc1C(=O)O [REPAGLINIDE] | Compound metabolized
* CN1CCC(=C2c3ccccc3CC(=O)c3sccc32)CC1.O=C(O)/C=C/C(=O)O [KETOTIFEN FUMARATE] | Compound metabolized
* N#Cc1ccc2c(c1)N(CCCN1CCC(O)CC1)c1ccccc1S2 | Compound NOT metabolized
* N#Cc1ccc2[nH]cc(CCCCN3CCN(c4ccc5oc(C(N)=O)cc5c4)CC3)c2c1 | Compound metabolized
* CCCN1C[C@H](CSC)C[C@@H]2c3cccc4[nH]cc(c34)C[C@H]21.CS(=O)(=O)O [PERGOLIDE MESYLATE] | Compound NOT metabolized
* CC(=O)Oc1ccc(C(c2ccc(OC(C)=O)cc2)c2ccccn2)cc1 | Compound metabolized
* COC(=O)[C@H](c1ccccc1Cl)N1CCc2sccc2C1.O=S(=O)(O)O [CLOPIDOGREL BISULFATE] | Compound metabolized
* CN(C)C(=O)Oc1cc(OC(=O)N(C)C)cc(C(O)CNC(C)(C)C)c1 (configuration not stated) | Compound metabolized
* COc1ccc2cc([C@H](C)C(=O)O)ccc2c1 | Compound NOT metabolized

---

- SETTINGS: human gut metagenome, 24 h, 2 µM
READOUT LABEL: Bacterial Biotransformation

* CCOc1ccccc1OCCN[C@H](C)Cc1ccc(OC)c(S(N)(=O)=O)c1.Cl [TAMSULOSIN HYDROCHLORIDE] | Compound NOT metabolized
* O=C1CN2Cc3c(ccc(Cl)c3Cl)N=C2N1 [ANAGRELIDE] | Compound NOT metabolized
* COc1ccc2c(c1)c(CC(=O)O)c(C)n2C(=O)c1ccc(Cl)cc1 | Compound metabolized
* CN1[C@@H]2CC[C@H]1C[C@@H](OC(=O)c1c[nH]c3ccccc13)C2 | Compound NOT metabolized
* CC(=O)OCC(=O)[C@@]1(OC(C)=O)[C@@H](C)C[C@H]2[C@@H]3C[C@H](F)C4=CC(=O)C=C[C@]4(C)[C@@]3(F)[C@@H](O)C[C@@]21C [DIFLORASONE DIACETATE] | Compound metabolized

---

- ASSAY METHOD TEXT: The drug is tested on Z-012 corresponding to metagenome with ENA study accession number: PRJEB37062 and ENA sample accession number: ERS12561812 for biotransformation under anaerobic condition. The drug concentrations were measured over 9 timepoints collected between 0 and 24 hours of incubation by liquid-chromatography-coupled mass spectrometry (LC–MS)
- SETTINGS: 2 µM
READOUT LABEL: Bacterial Biotransformation

• CC(C)C[C@H]1C(=O)N2CCC[C@H]2[C@]2(O)O[C@](NC(=O)[C@@H]3C=C4c5cccc6[nH]c(Br)c(c56)C[C@H]4N(C)C3)(C(C)C)C(=O)N12.CS(=O)(=O)O [BROMOCRIPTINE MESYLATE] = Compound metabolized
• COc1ccc(C(CN(C)C)C2(O)CCCCC2)cc1 (configuration not stated) = Compound NOT metabolized
• CN(CCOc1ccc(CC2SC(=O)NC2=O)cc1)c1ccccn1.O=C(O)/C=C\C(=O)O (configuration not stated) [ROSIGLITAZONE MALEATE] = Compound NOT metabolized
• O=C1C(CC[S+]([O-])c2ccccc2)C(=O)N(c2ccccc2)N1c1ccccc1 (configuration not stated) = Compound NOT metabolized
• COc1ccc2cc([C@H](C)C(=O)O)ccc2c1 = Compound NOT metabolized
• C=C[C@H]1CN2CC[C@H]1C[C@H]2[C@H](O)c1ccnc2ccc(OC)cc12.C=C[C@H]1CN2CC[C@H]1C[C@H]2[C@H](O)c1ccnc2ccc(OC)cc12.O.O.O=S(=O)(O)O [QUININE SULFATE] = Compound NOT metabolized
• CNNCc1ccc(C(=O)NC(C)C)cc1 = Compound metabolized
• O=C(CCCN1CCC2(CC1)C(=O)NCN2c1ccccc1)c1ccc(F)cc1 = Compound NOT metabolized
• CC(C)(C)NCC(O)COc1cccc2c1CC(O)C(O)C2 (configuration not stated) = Compound NOT metabolized
• CC(C)c1c(CN(C)C(C)Cc2ccccc2)n(C)n(-c2ccccc2)c1=O (configuration not stated) = Compound metabolized
• CC(C)(C)NC[C@H](O)COc1nsnc1N1CCOCC1.O=C(O)/C=C\C(=O)O [TIMOLOL MALEATE] = Compound NOT metabolized
• CC#C[C@]1(O)CC[C@H]2[C@@H]3CCC4=CC(=O)CCC4=C3[C@@H](c3ccc(N(C)C)cc3)C[C@@]21C = Compound NOT metabolized
• Clc1cccc(Cl)c1N=C1NCCN1 = Compound metabolized
• Br.COc1ccc2c(c1)[C@]13CCCC[C@@H]1[C@H](C2)N(C)CC3.O [DEXTROMETHORPHAN HYDROBROMIDE] = Compound NOT metabolized
• CCOc1ccccc1OCCN[C@H](C)Cc1ccc(OC)c(S(N)(=O)=O)c1.Cl [TAMSULOSIN HYDROCHLORIDE] = Compound NOT metabolized
• COc1ccccc1OCCNCC(O)COc1cccc2[nH]c3ccccc3c12 (configuration not stated) = Compound NOT metabolized
• CCCN(CCC)CCc1cccc2c1CC(=O)N2 = Compound metabolized
• CC(N)C12CC3CC(CC(C3)C1)C2 (configuration not stated) = Compound NOT metabolized
• CCN(CC)CCNC(=O)c1cc(S(C)(=O)=O)ccc1OC [TIAPRIDE] = Compound NOT metabolized
• CC(NC(C)(C)C)C(=O)c1cccc(Cl)c1 (configuration not stated) = Compound NOT metabolized
• CC(=O)O[C@H]1C(=O)[C@@]2(C)[C@H]([C@H](OC(=O)c3ccccc3)[C@]3(O)C[C@H](OC(=O)[C@H](O)[C@@H](NC(=O)c4ccccc4)c4ccccc4)C(C)=C1C3(C)C)[C@]1(OC(C)=O)CO[C@@H]1C[C@@H]2O = Compound NOT metabolized
• C#C[C@]1(OC(C)=O)CC[C@H]2[C@@H]3CCC4=C[C@@H](OC(C)=O)CC[C@@H]4[C@H]3CC[C@@]21C [ETHYNODIOL DIACETATE] = Compound metabolized
• CN[C@H]1CC[C@@H](c2ccc(Cl)c(Cl)c2)c2ccccc21 = Compound metabolized
• COc1cc(C(=O)NCc2ccc(OCCN(C)C)cc2)cc(OC)c1OC [TRIMETHOBENZAMIDE] = Compound NOT metabolized
• Cc1ccc(NC(=O)c2ccc(CN3CCN(C)CC3)cc2)cc1Nc1nccc(-c2cccnc2)n1 = Compound NOT metabolized
• COc1cc2nc(N3CCN(C(=O)C4COc5ccccc5O4)CC3)nc(N)c2cc1OC.CS(=O)(=O)O (configuration not stated) [DOXAZOSIN MESYLATE] = Compound NOT metabolized
• CCc1cccc2c3c([nH]c12)C(CC)(CC(=O)O)OCC3 (configuration not stated) = Compound NOT metabolized
• CN1CCCCC1CCN1c2ccccc2Sc2ccc([S+](C)[O-])cc21.O=S(=O)(O)c1ccccc1 (configuration not stated) [MESORIDAZINE BESYLATE] = Compound metabolized
• CC(=O)Nc1ccc(OC(C)=O)cc1 [DIACETAMATE] = Compound metabolized
• O=P1(N(CCCl)CCCl)NCCCO1 (configuration not stated) [CYCLOPHOSPHAMIDE ANHYDROUS] = Compound NOT metabolized
• COc1ccc(CN2CCNCC2)c(OC)c1OC.Cl.Cl [TRIMETAZIDINE DIHYDROCHLORIDE] = Compound NOT metabolized
• CC(=O)OCC(=O)NCCCOc1cccc(CN2CCCCC2)c1 [ROXATIDINE ACETATE] = Compound metabolized
